The reported measurements were obtained from ChEMBL document CHEMBL2385001.

# measurement_description: Hemolytic activity in human RBC at 100 uM after 48 hrs relative to control
# Format: ADME, cell-based, Erythrocyte
# test_parameters: red blood cells, read-out: Activity
Quick reference for hemolysis at 48 h, 100 µM among some molecules
result_type: hemolysis at 48 h, 100 µM

{"molecule": "Cc1ccc(S(=O)(=O)N2CCN(c3ccnc4cc(Cl)ccc34)CC2)cc1", "result_type": "hemolysis at 48 h, 100 µM", "observed_value": "0.62%"}
{"molecule": "O=S(=O)(c1cc(Cl)ccc1Cl)N1CCN(c2ccnc3cc(Cl)ccc23)CC1", "result_type": "hemolysis at 48 h, 100 µM", "observed_value": "2.06%"}
{"molecule": "O=S(=O)(c1ccccc1)N1CCN(c2ccnc3cc(Cl)ccc23)CC1", "result_type": "hemolysis at 48 h, 100 µM", "observed_value": "0.01%"}
{"molecule": "COc1ccc(S(=O)(=O)N2CCN(c3ccnc4cc(Cl)ccc34)CC2)cc1", "result_type": "hemolysis at 48 h, 100 µM", "observed_value": "6.03%"}
{"molecule": "O=S(=O)(c1ccc2ccccc2c1)N1CCN(c2ccnc3cc(Cl)ccc23)CC1", "result_type": "hemolysis at 48 h, 100 µM", "observed_value": "0.97%"}
{"molecule": "CS(=O)(=O)N1CCN(c2ccnc3cc(Cl)ccc23)CC1", "result_type": "hemolysis at 48 h, 100 µM", "observed_value": "0.01%"}
{"molecule": "CC(=O)Nc1ccc(S(=O)(=O)N2CCN(c3ccnc4cc(Cl)ccc34)CC2)cc1", "result_type": "hemolysis at 48 h, 100 µM", "observed_value": "0.83%"}
{"molecule": "CC(C)(C)c1ccc(S(=O)(=O)N2CCN(c3ccnc4cc(Cl)ccc34)CC2)cc1", "result_type": "hemolysis at 48 h, 100 µM", "observed_value": "1.36%"}
{"molecule": "CCCS(=O)(=O)N1CCN(c2ccnc3cc(Cl)ccc23)CC1", "result_type": "hemolysis at 48 h, 100 µM", "observed_value": "0.82%"}
{"molecule": "O=S(=O)(c1ccc(Cl)cc1)N1CCN(c2ccnc3cc(Cl)ccc23)CC1", "result_type": "hemolysis at 48 h, 100 µM", "observed_value": "1.4%"}
{"molecule": "O=[N+]([O-])c1ccccc1S(=O)(=O)N1CCN(c2ccnc3cc(Cl)ccc23)CC1", "result_type": "hemolysis at 48 h, 100 µM", "observed_value": "0.01%"}
{"molecule": "C=C[C@H]1CN2CC[C@H]1C[C@H]2[C@H](O)c1ccnc2ccc(OC)cc12 [QUININE]", "result_type": "hemolysis at 48 h, 100 µM", "observed_value": "2.14%"}

* * *

# measurement_description: Cytotoxicity against human HT-29 cells assessed as growth inhibition at 100 uM after 48 hrs by MTT assay relative to control
# Type: cell-based
# test_parameters: read-out: GI
Quick reference for inhibition at 48 h, 100 µM among some compounds

{"input_smiles": "O=[N+]([O-])c1ccccc1S(=O)(=O)N1CCN(c2ccnc3cc(Cl)ccc23)CC1", "inhibition at 48 h, 100 µM / %": 17}
{"input_smiles": "O=S(=O)(c1ccccc1)N1CCN(c2ccnc3cc(Cl)ccc23)CC1", "inhibition at 48 h, 100 µM / %": 45}
{"input_smiles": "CCCS(=O)(=O)N1CCN(c2ccnc3cc(Cl)ccc23)CC1", "inhibition at 48 h, 100 µM / %": 17}
{"input_smiles": "CC[C@@]1(O)C(=O)OCc2c1cc1n(c2=O)Cc2cc3ccccc3nc2-1", "inhibition at 48 h, 100 µM / %": 52}
{"input_smiles": "CC(=O)Nc1ccc(S(=O)(=O)N2CCN(c3ccnc4cc(Cl)ccc34)CC2)cc1", "inhibition at 48 h, 100 µM / %": 17}
